Tested on: Corynebacterium glutamicum ATCC13032
assay text: Bacterial growth in microscale cultivation, C. glutamicum
Type: cell-based
condition set: complex medium, 400 µM, relative to control
Quick list: Lag Phase per entry.

compound	Lag Phase
O=C(/C=C/c1ccc(O)cc1)c1ccc(O)cc1O [Compound 6, 2′,4′,4-Trihydroxychalcone]	105,3%
O=C(/C=C/c1ccccc1)c1ccccc1 [Compound 1, trans-Chalcone]	103,7%
O=C(/C=C/c1ccccc1)c1ccc(O)cc1O [Compound 4, 2′,4′-Dihydroxychalcone]	116,6%
O=C(/C=C/c1ccc(O)cc1)c1ccccc1O [Compound 3, 2′,4-Dihydroxychalcone]	118,1%

Now look at this one.
Request: Lag Phase, test system Corynebacterium glutamicum ATCC13032, entry O=C(/C=C/c1ccccc1O)c1ccc(O)cc1O [Compound 7, 2′,4′,2-Trihydroxychalcone]
141,2%

----------
Listed here are compounds together with their documented Kd.
system under test: wild-type C4 PEPC from F. trinervia (Flaveria trinervia)
Construct: the full-length ppcA gene of PEPC from F. trinervia (EMBL-Bank X61304); made in house; host or cells: Escherichia coli BL21(DE3)
Sequence (P30694 whole entry): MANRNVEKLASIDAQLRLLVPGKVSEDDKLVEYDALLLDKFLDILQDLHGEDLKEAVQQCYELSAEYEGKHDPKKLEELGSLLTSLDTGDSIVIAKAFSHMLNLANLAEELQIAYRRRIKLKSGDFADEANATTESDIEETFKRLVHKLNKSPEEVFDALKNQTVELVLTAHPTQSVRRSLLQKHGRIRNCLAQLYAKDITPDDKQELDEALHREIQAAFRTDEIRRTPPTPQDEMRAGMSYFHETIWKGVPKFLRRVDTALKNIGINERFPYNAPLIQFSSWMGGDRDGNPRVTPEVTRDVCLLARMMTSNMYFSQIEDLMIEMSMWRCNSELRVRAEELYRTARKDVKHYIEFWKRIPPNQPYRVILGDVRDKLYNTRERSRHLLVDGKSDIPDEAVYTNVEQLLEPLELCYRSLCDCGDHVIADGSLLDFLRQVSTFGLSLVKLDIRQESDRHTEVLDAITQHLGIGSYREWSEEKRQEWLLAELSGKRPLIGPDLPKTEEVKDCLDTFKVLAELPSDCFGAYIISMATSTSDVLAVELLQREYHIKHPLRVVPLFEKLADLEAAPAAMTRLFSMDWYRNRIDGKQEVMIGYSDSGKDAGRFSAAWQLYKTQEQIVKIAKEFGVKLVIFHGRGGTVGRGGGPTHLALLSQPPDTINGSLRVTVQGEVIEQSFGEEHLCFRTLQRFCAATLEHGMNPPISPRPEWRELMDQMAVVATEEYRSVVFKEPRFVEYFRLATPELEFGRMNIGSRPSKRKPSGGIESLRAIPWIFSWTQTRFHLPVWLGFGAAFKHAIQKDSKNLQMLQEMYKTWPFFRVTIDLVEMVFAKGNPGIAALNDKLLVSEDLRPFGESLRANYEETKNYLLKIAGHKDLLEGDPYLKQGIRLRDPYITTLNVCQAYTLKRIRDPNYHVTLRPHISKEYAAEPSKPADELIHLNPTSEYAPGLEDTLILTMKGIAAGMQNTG
assay text: Isothermal titration calorimetry, wild-type C4 PEPC
Assay type: binding
// return numeric value only (unit: nM, not printed)

compound	readout kind	value measured
O=C(/C=C/c1ccc(O)c(O)c1)c1ccc(O)c(O)c1O [Compound 12, 2′,3′,4′,3,4-Pentahydroxy-chalcone]	Kd	260

What does the record list as Kd for O=C(/C=C/c1ccc(O)c(O)c1)c1ccc(O)cc1O [Compound 8, 2′,4′,3,4-Tetrahydroxy-chalcone] ?
380

----------
Below is a list of entries, each paired with its recorded activity at 400 µM value.
Tested on: Escherichia coli K-12 MG1655
assay text: Bacterial growth in microscale cultivation, E. coli
Assay type: cell-based
condition set: Escherichia coli, MG1655, minimal medium, 400 µM, relative to control; read-out: Final Backscatter
Provide the reading as a plain figure in %.

Known activity at 400 µM results, listed for orientation:
compound	readout kind	value measured
O=C(/C=C/c1ccccc1)c1ccc(O)cc1O [Compound 4, 2′,4′-Dihydroxychalcone]	activity at 400 µM	102
O=C(/C=C/c1ccc(O)cc1)c1ccccc1O [Compound 3, 2′,4-Dihydroxychalcone]	activity at 400 µM	101
O=C(/C=C/c1ccccc1O)c1ccc(O)cc1O [Compound 7, 2′,4′,2-Trihydroxychalcone]	activity at 400 µM	97.4

Consider the additional compound presented here.
Field: activity at 400 µM (Escherichia coli K-12 MG1655). Entry: O=C(/C=C/c1ccc(O)cc1)c1ccc(O)cc1O [Compound 6, 2′,4′,4-Trihydroxychalcone]
97.7

----------
Overview of recorded activity at 400 µM for various molecules
Tested on: Bacillus subtilis 168
assay text: Bacterial growth in microscale cultivation, B. subtilis
Assay type: cell-based
condition set: Bacillus subtilis, 168, minimal medium, 400 µM, relative to control; read-out: Final Backscatter
The reply should read as a number followed by its unit.

Solved cases below.
molecule	readout kind	value measured
O=C(/C=C/c1ccc(O)cc1)c1ccccc1O [Compound 3, 2′,4-Dihydroxychalcone]	activity at 400 µM	102%
O=C(/C=C/c1ccc(O)cc1)c1ccc(O)cc1O [Compound 6, 2′,4′,4-Trihydroxychalcone]	activity at 400 µM	101%
O=C(/C=C/c1ccccc1)c1ccc(O)cc1O [Compound 4, 2′,4′-Dihydroxychalcone]	activity at 400 µM	77.3%

Now, please, on to the next molecule.
Reported activity at 400 µM for Bacillus subtilis 168, given O=C(/C=C/c1ccccc1O)c1ccc(O)cc1O [Compound 7, 2′,4′,2-Trihydroxychalcone] ?
95.3%
